# glutamate uptake change annotations
- Assay: enhancers of glutamate uptake in motor neurons, MN-1 cell line (AID 1612);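 also: tested at 1 µM final; 0% = mean of DMSO vehicle wells on each plate; positive means more glutamate uptake than control and negative means less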
- Protocol conditions: MN-1 motor neuron cells, stronger effect = higher value
Attribute measured: glutamate uptake change (%)

INSERT INTO measurements (molecule, attribute_measured, val) VALUES
  ('COc1ccc(C(=O)N2CCCC2=O)cc1', 'glutamate uptake change', 5.51),
  ('N#C/C(=C\c1cccc(O)c1)C(=O)O', 'glutamate uptake change', -1.74),
  ('O=c1[nH]c2ccccc2n1C1CCN(CCCC(c2ccc(F)cc2)c2ccc(F)cc2)CC1', 'glutamate uptake change', 15.9),
  ('N#CC(O[C@@H]1O[C@H](CO[C@@H]2O[C@H](CO)[C@@H](O)[C@H](O)[C@H]2O)[C@@H](O)[C@H](O)[C@H]1O)c1ccccc1 (some centres not stated)', 'glutamate uptake change', 14),
  ('NCC(O)c1ccc(O)cc1 (configuration not stated)', 'glutamate uptake change', -13.3),
  ('CNC(C)Cc1ccccc1 (configuration not stated)', 'glutamate uptake change', 6.37),
  ('C[C@@H]([C@H](O)c1ccccc1)N(C)C', 'glutamate uptake change', 13.8),
  ('O=P1(N(CCCl)CCCl)NCCCO1 (configuration not stated)', 'glutamate uptake change', -7.13),
  ('CCOC(=O)C1C(OC(=O)c2ccccc2)CC2CCC1N2C (configuration not stated)', 'glutamate uptake change', -24.3),
  ('NCCc1c[nH]c2ccccc12', 'glutamate uptake change', 6.97),
  ('C[C@H]1O[C@@H](O[C@H]2[C@@H](O)C[C@H](O[C@H]3[C@@H](O)C[C@H](O[C@H]4CC[C@]5(C)C6CC[C@]7(C)[C@@H](C8=CC(=O)OC8)CC[C@]7(O)C6CC[C@@H]5C4)O[C@@H]3C)O[C@@H]2C)C[C@H](O)[C@@H]1O (some centres not stated)', 'glutamate uptake change', 5.63),
  ('Cc1cc(O)ccc1Cl', 'glutamate uptake change', -10.2),
  ('COc1ccc(C[C@H]2NC[C@H](O)[C@H]2OC(C)=O)cc1', 'glutamate uptake change', -57.2),
  ('N[C@@H](Cc1ccc(N(CCCl)CCCl)cc1)C(=O)O', 'glutamate uptake change', 15.9),
  ('O=C1Nc2ccc(Cl)cc2C(c2ccccc2)=NC1O (configuration not stated)', 'glutamate uptake change', 0.27),
  ('O=[N+]([O-])O[C@H]1CO[C@H]2[C@@H]1OC[C@H]2O[N+](=O)[O-]', 'glutamate uptake change', -15.4),
  ('c1ccc2nc(N3CCNCC3)ccc2c1', 'glutamate uptake change', -14.6),
  ('CC[C@@H](CO)NC(=O)[C@@H]1C=C2c3cccc4[nH]cc(c34)C[C@H]2N(C)C1', 'glutamate uptake change', 12.4),
  ('CCCC(C)C1(CC)C(=O)NC(=O)NC1=O (configuration not stated)', 'glutamate uptake change', 8.51),
  ('COc1ccc2c3c1O[C@H]1[C@@H](O)C=CC4[C@@H](C2)N(C)CC[C@@]341 (some centres not stated)', 'glutamate uptake change', -22),
  ('CN1C(=O)CN=C(c2ccccc2F)c2cc([N+](=O)[O-])ccc21', 'glutamate uptake change', -1.18),
  ('CN1C2CCC1C(C(=O)O)C(OC(=O)c1ccccc1)C2 (configuration not stated)', 'glutamate uptake change', -21);

----------
Reported log fold change Tl+ flux values for the following molecules.
- System: R275C/Slo1WT/beta2
- Assay: modulators of BK channel variants, profiling panel, selectivity assay, cell-based, U2OS BacMam, thallium flux, beta subunits (AID 1259406);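 also: initial slope of Thallos dye fluorescence rise after thallium is added; log ratio against the mean of 0.3% DMSO vehicle wells on the same plate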
- Protocol conditions: at 30 µM
Attribute measured: log fold change Tl+ flux

INSERT INTO assay_data (molecule, attribute_measured, val) VALUES
  ('NC1=NC(=O)C(c2ccccc2)O1 (centres undefined)', 'log fold change Tl+ flux', 0.0857),
  ('CCCC(C)(COC(N)=O)COC(=O)NC(C)C (centres undefined)', 'log fold change Tl+ flux', 0.0148),
  ('CC[C@@H](C(N)=O)N1CCCC1=O', 'log fold change Tl+ flux', -0.0311),
  ('C=CCN1CC[C@]23c4c5ccc(O)c4O[C@H]2C(=O)CC[C@@]3(O)[C@H]1C5', 'log fold change Tl+ flux', 0.0157),
  ('O=c1[nH]c(=S)[nH]c(O)c1C=C1C=CC=N1', 'log fold change Tl+ flux', -0.0255),
  ('C=C1C[C@@H]2[C@H](CC[C@]3(C)C(=O)CC[C@@H]23)[C@@]2(C)C=CC(=O)C=C12', 'log fold change Tl+ flux', 0.0155),
  ('CC[C@]1(O)CC[C@H]2[C@@H]3CCC4=CCCC[C@@H]4[C@H]3CC[C@@]21C', 'log fold change Tl+ flux', 0.0508),
  ('Cc1ccc(-c2nc3ccc(C)cn3c2CC(=O)N(C)C)cc1', 'log fold change Tl+ flux', 0.00818),
  ('CC(O)(CS(=O)(=O)c1ccc(F)cc1)C(=O)Nc1ccc(C#N)c(C(F)(F)F)c1 (centres undefined)', 'log fold change Tl+ flux', -0.00212),
  ('NC(=O)OCCCc1ccccc1', 'log fold change Tl+ flux', 0.0397),
  ('CS(=O)(=O)Nc1ccc(Cc2noc(-c3ccc4[nH]cc(CCN)c4c3)n2)cc1', 'log fold change Tl+ flux', 0.0125),
  ('CCC1(c2ccc(N)cc2)CCC(=O)NC1=O (centres undefined)', 'log fold change Tl+ flux', 0.0134),
  ('C[C@]12CC[C@H]3[C@@H](CCC4=CC(=O)CC[C@@H]43)[C@@H]1CC[C@@H]2O', 'log fold change Tl+ flux', -0.0416),
  ('Clc1ccc(COC(Cn2ccnc2)c2ccc(Cl)cc2Cl)cc1 (centres undefined)', 'log fold change Tl+ flux', -0.0527),
  ('Clc1ccc(COC(Cn2ccnc2)c2ccc(Cl)cc2Cl)c(Cl)c1 (centres undefined)', 'log fold change Tl+ flux', 0.0237),
  ('c1ccc(Cn2ccnc2)cc1', 'log fold change Tl+ flux', -0.0321),
  ('CC(C)N(CCC(C(N)=O)(c1ccccc1)c1ccccn1)C(C)C (centres undefined)', 'log fold change Tl+ flux', 0.00641),
  ('CN1C(=O)CN=C(c2ccccc2)c2cc([N+](=O)[O-])ccc21', 'log fold change Tl+ flux', 0.0318),
  ('Cc1nnc2n1-c1ccc(Cl)cc1C(c1ccccc1)=NC2', 'log fold change Tl+ flux', -0.00622);

----------
- Tested on: Aerobactin synthetase IucA (Klebsiella pneumoniae hvKP1)
- Assay: Biochemical IucA enzyme inhibition primary screen of the Spectrum library (AID 1346200);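 also: 100% = wells without compound and 0% = wells lacking enzyme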
- Protocol conditions: malachite green pyrophosphate, A620, at 8 µM, stronger effect = lower value
Attribute measured: activity remaining (%)

INSERT INTO assay_data (compound, val) VALUES
  ('Cc1cc(C(C)(C)C)cc(C)c1CC1=NCCN1', 126),
  ('CC(=O)Oc1ccc2c(c1)CCC1C2CC[C@]2(C)C(=O)CCC12 (some centres not stated)', 99.1),
  ('CC(C)[C@H](N)C(=O)OCCOCn1cnc2c(=O)[nH]c(N)nc21', 122),
  ('COc1cc(OC)c2c(OC)c(-c3ccc4c(c3)OCO4)c(=O)oc2c1', 95.4),
  ('CC1=C(C(=O)O)N2C(=O)[C@@H](NC(=O)C(N)c3ccc(O)cc3)[C@H]2SC1 (some centres not stated)', 103),
  ('N#Cc1c(Cl)c(Cl)c(Cl)c(C#N)c1Cl', 108),
  ('O=C(O)CCCc1ccccc1', 111),
  ('CC(C)c1cc2c(c(O)c1O)[C@@]1(C(=O)O)CCCC(C)(C)C1CC2 (some centres not stated)', 114),
  ('O=c1ccc2c(O)c3ccoc3cc2o1', 96.6),
  ('Cc1cccc2c3c(ccc12)C1=C(C(=O)C3=O)C(C)CO1 (configuration not stated)', 114),
  ('O=C1O[C@H](C(O)CO)C(O)=C1O (some centres not stated)', 92.2),
  ('OCCN1CCN(CCCN2c3ccccc3Sc3ccc(C(F)(F)F)cc32)CC1', 125);

----------
Known viability decrease (inhibition) of a selection of compounds
- Assay: CellTiter-Glo luminescent readout of SW480 viability loss, NPC library primary (AID 1117343)
- Protocol conditions: CellTiter-Glo luminescence; at 20 µM (top of the series)
Attribute measured: viability decrease (inhibition) (%)

INSERT INTO measurements (compound, val) VALUES
  ('Cc1ccc(S(=O)(=O)N[C@@H](CCCCN)C(=O)CCl)cc1', 12.5),
  ('C[C@]12CC[C@H]3[C@@H](CCC4=CC(=O)CC[C@@]43C)[C@@H]1CC[C@@H]2C(=O)O', -1.3),
  ('C[C@@]12CCCCC[C@@H](Cc3ccc(O)cc31)[C@H]2N', 6.4),
  ('OC(c1ccccc1)(c1ccccc1)C1CCNCC1', 117),
  ('c1ccc(N2CCNCC2)cc1', 0.3),
  ('CC(=O)[O][Hg][c]1ccccc1', 144),
  ('CC(=O)[C@H]1CC[C@H]2[C@@H]3CC[C@H]4C[C@H](O)CC[C@]4(C)[C@H]3C(=O)C[C@]12C', 67.8),
  ('CC(C)(C)NC[C@H](O)c1ccc(O)cc1Cl', 37.1),
  ('CN1C(=S)CN=C(c2ccccc2)c2cc(Cl)ccc21', 77.5),
  ('CCCCNC(C)(C)[P+](=O)O', 1.4),
  ('C=C(C)[C@H]1CN[C@H](C(=O)O)[C@H]1CC(=O)O', -0.1),
  ('O=C(NC(O)C(Cl)(Cl)Cl)NC(O)C(Cl)(Cl)Cl (stereo not given)', -28.2),
  ('Cc1ccc2c(c1)C1CN(C)CCC1N2 (stereo not given)', 22.4),
  ('O=C(Nc1ccc(Br)cc1)c1cc(Br)cc(Br)c1O', 94.4),
  ('C#CCOC(C(=O)OCCN(C)C)(c1ccccc1)c1ccccc1', 17.1),
  ('COC1CC(=C(c2cccs2)c2cccs2)C[N+](C)(C)C1 (stereo not given)', -2.9),
  ('CC(NC(C)(C)C)C(=O)c1cccc(Cl)c1 (stereo not given)', 30.2),
  ('CCCCNCC(O)c1ccc(O)cc1 (stereo not given)', -1.7),
  ('Fc1ccc(C(OCCN2CCN(CCCc3ccccc3)CC2)c2ccc(F)cc2)cc1', 159),
  ('O=C(CCCN1CCC(n2c(=O)[nH]c3ccccc32)CC1)c1ccc(F)cc1', 29.4),
  ('CCOC(=O)c1cncn1C(C)c1ccccc1 (stereo not given)', 22.4),
  ('COP(=S)(OC)Oc1ccc(SC)c(C)c1', 89.6),
  ('ClCCCN1CCN(c2cccc(Cl)c2)CC1', 26.2),
  ('O=C(O)c1ccc(=O)[nH]c1', -13.1),
  ('CCN1CCCC1CNC(=O)C(O)(c1ccccc1)c1ccccc1 (stereo not given)', 24.2);
